# System: NHBE cells
# test-summary: Biolog metabolic array: substrate use by NHBE cells with or without CA09 infection
# Format: cell-based, human
# conditions-used: Control (uninfected) NHBE cells, 9 hr
Consider the following compounds and their measured 590 nm absorbance normalized to zero hour (substrate use), 9 hr readings.
endpoint: 590 nm absorbance normalized to zero hour (substrate use), 9 hr

compound	system-under-test	reading
O=C(CO)[C@@H](O)[C@H](O)[C@H](O)COP(=O)(O)O [D-Fructose-6-Phosphate]	NHBE cells	0.97
OC[C@H]1O[C@H](O[C@H]2O[C@H](CO)[C@@H](O)[C@H](O)[C@H]2O)[C@H](O)[C@@H](O)[C@@H]1O	NHBE cells	5.11
O=C(CO)[C@@H](O)[C@H](O)[C@H](O)CO	NHBE cells	4.01
OC[C@@H](O)[C@@H](O)[C@H](O)[C@@H](O)CO	NHBE cells	6.08
O=C(O)C[C@@H](O)C(=O)O	NHBE cells	3.06
COC(=O)[C@@H](C)O [Methyl D-Lactate]	NHBE cells	2.39
OC[C@H]1O[C@H](OC[C@H]2OC(O)(CO)[C@@H](O)[C@@H]2O)[C@H](O)[C@@H](O)[C@@H]1O (stereo partly shown)	NHBE cells	2.14
O=C(O)CCCO [g-Hydroxy-Butyric Acid]	NHBE cells	2.09
O=C(CO)[C@@H](O)[C@@H](O)[C@H](O)CO	NHBE cells	0.36
O=C[C@H](O)[C@@H](O)[C@H](O)[C@H](O)COP(=O)(O)O [D-Glucose-6-Phosphate]	NHBE cells	1.38
O=C(O)C(O)C(O)C(=O)O (stereo not shown)	NHBE cells	2.95
OC[C@H]1O[C@@H](O[C@@H]2[C@@H](CO)OC(O)(CO)[C@H]2O)[C@H](O)[C@@H](O)[C@H]1O (mixture of isomers)	NHBE cells	4.27
O[C@H]1[C@H](O)[C@@H](O)[C@H](O)[C@@H](O)[C@H]1O	NHBE cells	3.81
CC(=O)CC(=O)O	NHBE cells	1.66
CO[C@@H]1O[C@H](CO)[C@H](O)[C@H](O)[C@H]1O [b-Methyl-D-Galactoside]	NHBE cells	1.36
O=C(O)CC(CC(=O)O)C(=O)O	NHBE cells	0.83
CO[C@H]1O[C@H](CO)[C@H](O)[C@H](O)[C@H]1O [a-Methyl-D-Galactoside]	NHBE cells	1.29
OC[C@H]1O[C@@H](OC[C@H]2OC(O)[C@H](O)[C@@H](O)[C@@H]2O)[C@H](O)[C@@H](O)[C@@H]1O (stereo partly shown)	NHBE cells	5.20
CCC(=O)C(=O)O	NHBE cells	1.36
COC(=O)C(C)=O [Methyl Pyruvate]	NHBE cells	1.74
OC[C@H]1O[C@H](OC[C@H]2O[C@H](O[C@]3(CO)O[C@H](CO)[C@@H](O)[C@@H]3O)[C@H](O)[C@@H](O)[C@@H]2O)[C@H](O)[C@@H](O)[C@H]1O	NHBE cells	1.82
CC(=O)C(C)O (stereo not shown) [3-Hydroxy 2-Butanone]	NHBE cells	7.44
O=C[C@@H](O)[C@H](O)[C@H](O)CO	NHBE cells	1.14
O=C(O)[C@H](O)[C@@H](O)[C@H](O)[C@H](O)CO[C@H]1O[C@H](CO)[C@H](O)[C@H](O)[C@H]1O	NHBE cells	0.53
O=C[C@H](O)[C@@H](O)[C@@H](O)[C@H](O)CO	NHBE cells	2.53
OC[C@H]1O[C@@H]2O[C@H]3[C@H](O)[C@@H](O)[C@@H](O[C@H]4[C@H](O)[C@@H](O)[C@@H](O[C@H]5[C@H](O)[C@@H](O)[C@@H](O[C@H]6[C@H](O)[C@@H](O)[C@@H](O[C@H]7[C@H](O)[C@@H](O)[C@@H](O[C@H]1[C@H](O)[C@H]2O)O[C@@H]7CO)O[C@@H]6CO)O[C@@H]5CO)O[C@@H]4CO)O[C@@H]3CO	NHBE cells	5.99
CC(=O)N[C@H]1C(O)O[C@H](CO)[C@@H](O)[C@@H]1O (stereo partly shown)	NHBE cells	0.50
O=P(O)(O)O[C@H]1O[C@H](CO)[C@@H](O)[C@H](O)[C@H]1O [D-Glucose-1-Phosphate]	NHBE cells	1.09
O=C(O)C[C@H](O)C(=O)O	NHBE cells	1.39
OCC1OC(OC2C(CO)OC(OC3C(CO)OC(O)C(O)C3O)C(O)C2O)C(O)C(O)C1O (stereo not shown)	NHBE cells	7.32
OCC(O)CO	NHBE cells	1.08
OC[C@@H](O)[C@H](O)[C@@H](O)CO	NHBE cells	1.02
OC[C@@H]1OC(O)[C@@H](O)[C@H](O)[C@H]1O (stereo partly shown)	NHBE cells	3.76
CC(=O)N[C@H]1[C@H]([C@H](O)[C@H](O)CO)OC(O)(C(=O)O)C[C@@H]1O (stereo partly shown)	NHBE cells	0.29
